target_or_system: CaV2.2 (Homo sapiens)
Construct: endogenous in cells
measurement_protocol: HVA N-type calcium channel FLIPR assay in SH-SY5Y cells
applied_conditions: 10 µM nifedipine present, n = 3, read-out: IC50 CaV2.2 (HVA CaVs)
Provide the recorded pIC50 for the entries that follow.
Interpret pIC50 as the negative base-10 log of the concentration measured in mol/L.

Task: Provide pIC50, system CaV2.2 (Homo sapiens), entry O=C(c1c[nH]c2cc(Br)ccc12)c1cn(S(=O)(=O)O)c2cc(Br)ccc12 [V]
Output: 4.04

Task: Provide pIC50, system CaV2.2 (Homo sapiens), entry CCOC(=O)C(=O)c1cn(S(=O)(=O)c2ccc(C)cc2)c2ccccc12 [VII]
Output: 4.49

Task: Provide pIC50, system CaV2.2 (Homo sapiens), entry Cc1ccc(S(=O)(=O)n2cc(C(=O)c3cn(S(=O)(=O)c4ccc(C)cc4)c4ccccc34)c3ccccc32)cc1 [X]
Output: 4.26

Task: Provide pIC50, system CaV2.2 (Homo sapiens), entry O=C(c1c[nH]c2ccccc12)c1c[nH]c2ccccc12 [DIM-one, 3,3′-diindolylmethanone]
Output: 3.92

----------
target_or_system: CaV3.2 (Homo sapiens)
Sequence (O95180 whole entry): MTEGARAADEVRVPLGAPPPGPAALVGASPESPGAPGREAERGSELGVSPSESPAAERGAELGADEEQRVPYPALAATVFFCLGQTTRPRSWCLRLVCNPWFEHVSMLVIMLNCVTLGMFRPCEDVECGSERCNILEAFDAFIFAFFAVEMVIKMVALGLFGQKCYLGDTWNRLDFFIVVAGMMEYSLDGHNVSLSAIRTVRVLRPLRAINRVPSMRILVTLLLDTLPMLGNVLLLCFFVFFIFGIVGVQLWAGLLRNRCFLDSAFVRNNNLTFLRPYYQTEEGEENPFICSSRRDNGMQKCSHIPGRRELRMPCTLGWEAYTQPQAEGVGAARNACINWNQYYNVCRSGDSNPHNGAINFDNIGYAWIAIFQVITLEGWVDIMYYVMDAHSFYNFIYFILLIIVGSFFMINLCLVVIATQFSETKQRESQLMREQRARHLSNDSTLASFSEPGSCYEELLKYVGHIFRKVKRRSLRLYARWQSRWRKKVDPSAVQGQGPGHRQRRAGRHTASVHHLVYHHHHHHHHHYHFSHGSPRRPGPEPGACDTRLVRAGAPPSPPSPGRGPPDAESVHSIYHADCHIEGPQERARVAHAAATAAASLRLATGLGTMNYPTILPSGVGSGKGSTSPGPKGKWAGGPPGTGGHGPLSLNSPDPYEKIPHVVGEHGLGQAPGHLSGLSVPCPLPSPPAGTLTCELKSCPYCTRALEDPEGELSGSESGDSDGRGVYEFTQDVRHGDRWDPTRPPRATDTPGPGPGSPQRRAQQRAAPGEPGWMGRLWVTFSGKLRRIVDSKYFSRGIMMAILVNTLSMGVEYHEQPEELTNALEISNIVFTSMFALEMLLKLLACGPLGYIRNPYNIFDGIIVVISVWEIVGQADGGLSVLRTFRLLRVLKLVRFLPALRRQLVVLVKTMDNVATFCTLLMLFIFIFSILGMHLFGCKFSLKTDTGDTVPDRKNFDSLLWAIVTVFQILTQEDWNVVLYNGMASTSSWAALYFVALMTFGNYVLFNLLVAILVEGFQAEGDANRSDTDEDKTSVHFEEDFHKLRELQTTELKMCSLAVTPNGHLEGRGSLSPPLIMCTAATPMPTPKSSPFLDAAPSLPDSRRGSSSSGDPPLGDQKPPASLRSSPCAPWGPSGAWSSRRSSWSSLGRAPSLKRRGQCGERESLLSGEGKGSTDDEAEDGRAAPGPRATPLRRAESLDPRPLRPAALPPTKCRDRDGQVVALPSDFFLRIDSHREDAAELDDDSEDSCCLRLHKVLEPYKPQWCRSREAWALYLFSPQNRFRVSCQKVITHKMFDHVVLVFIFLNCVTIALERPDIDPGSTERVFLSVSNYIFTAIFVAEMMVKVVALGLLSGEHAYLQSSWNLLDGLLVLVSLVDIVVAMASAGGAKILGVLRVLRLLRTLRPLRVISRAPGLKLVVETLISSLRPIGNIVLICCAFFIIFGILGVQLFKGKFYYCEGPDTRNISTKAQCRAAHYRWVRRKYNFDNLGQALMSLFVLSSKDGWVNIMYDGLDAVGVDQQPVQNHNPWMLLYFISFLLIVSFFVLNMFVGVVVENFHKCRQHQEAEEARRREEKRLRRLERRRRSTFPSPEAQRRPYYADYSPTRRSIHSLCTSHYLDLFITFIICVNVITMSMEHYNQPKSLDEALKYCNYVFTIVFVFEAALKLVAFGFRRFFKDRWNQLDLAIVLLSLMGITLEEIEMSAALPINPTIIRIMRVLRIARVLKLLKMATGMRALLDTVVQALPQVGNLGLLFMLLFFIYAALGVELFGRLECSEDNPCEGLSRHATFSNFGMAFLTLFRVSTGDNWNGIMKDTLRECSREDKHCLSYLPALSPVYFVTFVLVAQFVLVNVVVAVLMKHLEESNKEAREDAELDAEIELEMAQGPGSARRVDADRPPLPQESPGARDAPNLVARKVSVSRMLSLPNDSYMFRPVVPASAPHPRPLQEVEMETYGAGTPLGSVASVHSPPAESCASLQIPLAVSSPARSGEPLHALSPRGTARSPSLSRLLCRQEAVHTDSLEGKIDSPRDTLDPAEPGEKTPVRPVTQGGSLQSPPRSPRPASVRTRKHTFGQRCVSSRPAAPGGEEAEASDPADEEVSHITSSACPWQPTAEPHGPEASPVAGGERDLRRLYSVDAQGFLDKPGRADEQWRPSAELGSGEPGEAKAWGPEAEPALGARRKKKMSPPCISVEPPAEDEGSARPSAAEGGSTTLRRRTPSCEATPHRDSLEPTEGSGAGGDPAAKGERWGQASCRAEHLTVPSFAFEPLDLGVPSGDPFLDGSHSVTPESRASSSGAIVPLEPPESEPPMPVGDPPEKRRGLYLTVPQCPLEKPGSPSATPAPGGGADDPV
measurement_protocol: T-type calcium channel window current FLIPR assay, CaV3.2
Assay type: cell-based
applied_conditions: FLIPR, one separate experiment in quadruplicate (n = 4); read-out: IC50 of representative concentration-response curve, CaV3.2 window current
Method: The human embryonic kidney 293 (HEK 293) cell lines (from Emmanuel Bourinet, Montpellier, France) stably expressing CaV3.2 or CaV3.3 were cultured under 5% carbon dioxide at 37 °C in Dulbecco’s Modified Eagle Medium (DMEM) Glutamax (Gibco, Life Technologies, Carlsbad, CA, USA) supplemented with 10% (v/v) fetal bovine serum (FBS), 100 U/mL penicillin, 100 μg/mL streptomycin (Gibco, Life Technologies, Carlsbad, CA, USA), and 750 μg/mL geneticin (G418) (Gibco, Life Technologies). […]
Provide the recorded pIC50 for the entries that follow.
Interpret pIC50 as the negative base-10 log of the concentration measured in mol/L.

Task: Annotate the molecule c1ccc2c(Cc3c[nH]c4ccccc34)c[nH]c2c1 [DIM, 3,3′-diindolylmethane, reference compound] with its measured pIC50.
Output: 4.26

Task: Annotate the molecule O=C(c1c[nH]c2ccccc12)c1c[nH]c2ccccc12 [DIM-one, 3,3′-diindolylmethanone] with its measured pIC50.
Output: 4.13

----------
Provide the recorded viability at 50 µM for the entries that follow.
Test system: T-47D cells
measurement_protocol: Cell viability MTT assay, T-47D
Format: cell-based, human
applied_conditions: Homo sapiens, T47D, 50 µM, 72 h treatment, n = 4
Lab book: enter the figure in %, no units written.

Task: Annotate the compound c1ccc2c(Cc3c[nH]c4ccccc34)c[nH]c2c1 [DIM, 3,3′-diindolylmethane, reference compound] with its measured viability at 50 µM.
Output: 18.9

Task: Annotate the compound "O=C(c1c[nH]c2ccccc12)c1cn(S(=O)(=O)O)c2ccccc12" with its measured viability at 50 µM.
Output: 79.7

Task: Annotate the compound "O=C(c1c[nH]c2ccccc12)c1c[nH]c2ccccc12" with its measured viability at 50 µM.
Output: 50.6

Task: Annotate the compound "O=C(c1c[nH]c2cc(Br)ccc12)c1c[nH]c2cc(Br)ccc12" with its measured viability at 50 µM.
Output: 6.14

Task: Annotate the compound "O=C(c1c[nH]c2cc(Br)ccc12)c1cn(S(=O)(=O)O)c2cc(Br)ccc12" with its measured viability at 50 µM.
Output: 31.4

----------
Tested on: MCF-7 cells
measurement_protocol: Cell viability MTT assay, MCF-7
Format: cell-based, human
applied_conditions: Homo sapiens, MCF7, 50 µM, 72 h treatment, n = 4
attribute_measured: viability at 50 µM (%)
Lab book: enter the figure in %, no units written.

Task: Annotate the molecule "O=C(c1c[nH]c2ccccc12)c1cn(S(=O)(=O)O)c2ccccc12" with its measured viability at 50 µM.
Output: 84.9

Task: Annotate the molecule "O=C(c1c[nH]c2cc(Br)ccc12)c1cn(S(=O)(=O)O)c2cc(Br)ccc12" with its measured viability at 50 µM.
Output: 29.5

Task: Annotate the molecule c1ccc2c(Cc3c[nH]c4ccccc34)c[nH]c2c1 [DIM, 3,3′-diindolylmethane, reference compound] with its measured viability at 50 µM.
Output: 3.65

Task: Annotate the molecule "O=C(c1c[nH]c2cc(Br)ccc12)c1c[nH]c2cc(Br)ccc12" with its measured viability at 50 µM.
Output: 6.35

Task: Annotate the molecule "O=C(c1c[nH]c2ccccc12)c1c[nH]c2ccccc12" with its measured viability at 50 µM.
Output: 52.3

----------
System: MCF-7 cells
measurement_protocol: Cell viability MTT assay, MCF-7
Format: cell-based, human
applied_conditions: 72 h treatment, n = 3
attribute_measured: IC50 (µM)
Lab book: enter the figure in µM, no units written.

Task: Provide IC50, system MCF-7 cells, entry "O=C(c1c[nH]c2cc(Br)ccc12)c1c[nH]c2cc(Br)ccc12"
Output: 6.1

----------
System: T-47D cells
measurement_protocol: Cell viability MTT assay, T-47D
Assay type: cell-based, human
applied_conditions: 72 h treatment, n = 3
attribute_measured: IC50 (µM)
Lab book: enter the figure in µM, no units written.

Task: Provide IC50, system T-47D cells, entry "O=C(c1c[nH]c2cc(Br)ccc12)c1c[nH]c2cc(Br)ccc12"
Output: 4.1

----------
Provide the recorded IC50 for the entries that follow.
Tested on: HT-29 cells
measurement_protocol: Cell viability MTT assay, HT-29
Format: cell-based, human
applied_conditions: Homo sapiens, HT-29, 72 h, 72 h treatment, n = 3
Lab book: enter the figure in µM, no units written.

Task: Annotate the molecule "O=C(c1c[nH]c2cc(Br)ccc12)c1c[nH]c2cc(Br)ccc12" with its measured IC50.
Output: 1

Task: Annotate the molecule c1ccc2c(Cc3c[nH]c4ccccc34)c[nH]c2c1 [DIM, 3,3′-diindolylmethane, reference compound] with its measured IC50.
Output: 33

Task: Annotate the molecule "O=C(c1c[nH]c2cc(Br)ccc12)c1cn(S(=O)(=O)O)c2cc(Br)ccc12" with its measured IC50.
Output: 15

Task: Annotate the molecule "O=C(c1c[nH]c2ccccc12)c1c[nH]c2ccccc12" with its measured IC50.
Output: 20

----------
Provide the recorded pIC50 for the entries that follow.
target_or_system: UniProt O95180
measurement_protocol: T-type calcium channel window current FLIPR assay, CaV3.2
Format: cell-based
applied_conditions: FLIPR window current, n = 3; read-out: IC50 CaV3.2 (LVA CaVs)
Interpret pIC50 as the negative base-10 log of the concentration measured in mol/L.

Task: Annotate the compound "O=C(c1c[nH]c2ccccc12)c1c[nH]c2ccccc12" with its measured pIC50.
Output: 4.13

Task: Annotate the compound c1ccc2c(Cc3c[nH]c4ccccc34)c[nH]c2c1 [DIM, 3,3′-diindolylmethane, reference compound] with its measured pIC50.
Output: 4.28

Task: Annotate the compound "O=C(c1c[nH]c2cc(Br)ccc12)c1c[nH]c2cc(Br)ccc12" with its measured pIC50.
Output: 4.24

Task: Annotate the compound "O=C(c1c[nH]c2cc(Br)ccc12)c1cn(S(=O)(=O)O)c2cc(Br)ccc12" with its measured pIC50.
Output: 4.17

The values you see were collected from paper PMC9412534.
